Values compiled from patent US20240272170A1.

# Tested On: T1, LA peptide
# T1 construct: The peptide was coated on the Octet sensor; also called peptide with N-terminal leucine and penultimate alanine
# Experiment Notes: BLI (Octet), peptide on sensor, purified protein in solution
Measured Property: Octet response after 200 sec association (nm)
Enter your answer as a number in nm; do not include the unit.

Req: Please look up its Octet response after 200 sec association: PS801/PS814 (designed binder, also called E63K) MPTAASATESAIEDTPAPARPEVDGRTKPKRQPRYHVVLWNDDDHTYQYVVVMLQSLFGHPPKRGYRLAKEVDTQGRVIVLTTTREHAELKRDQIHAFGYDRLLARSKGSMKASIEAEE
Resp: 10.7

Req: Please look up its Octet response after 200 sec association: PS557 (other, Natural parent ClpS protein, expressed in E. coli and purified; also called WT; wild-type protein) MPTAASATESAIEDTPAPARPEVDGRTKPKRQPRYHVVLWNDDDHTYQYVVVMLQSLFGHPPERGYRLAKEVDTQGRVIVLTTTREHAELKRDQIHAFGYDRLLARSKGSMKASIEAEE
Resp: 9.8

Req: Please look up its Octet response after 200 sec association: PS808 (designed binder, Variant of PS557; also called Q55R) MPTAASATESAIEDTPAPARPEVDGRTKPKRQPRYHVVLWNDDDHTYQYVVVMLRSLFGHPPERGYRLAKEVDTQGRVIVLTTTREHAELKRDQIHAFGYDRLLARSKGSMKASIEAEE
Resp: 10.4

Req: Please look up its Octet response after 200 sec association: PS831 (designed binder, Variant of PS557) MPTAASATESAIEDTPAPARPEVDGRTKPKRQPRYHVVLWNDDDHTYQYVVVMLQSLFGHPRKRGYRLAKEMDTLGRVIVLTTTREHAELKRDQIHAFGYDRLLARSKGSMKASIEAEE
Resp: 12.2
